These entries and their values trace back to patent EP2336190A2.

MEASUREMENT_TARGET: T1, VEGF (human, UniProt P15692-4 27-191, limits assumed)
T1 construct: also called human VEGF; vascular endothelial growth factor
T1 sequence (P15692 other isoform, or with tags, fused parts or gaps limits assumed): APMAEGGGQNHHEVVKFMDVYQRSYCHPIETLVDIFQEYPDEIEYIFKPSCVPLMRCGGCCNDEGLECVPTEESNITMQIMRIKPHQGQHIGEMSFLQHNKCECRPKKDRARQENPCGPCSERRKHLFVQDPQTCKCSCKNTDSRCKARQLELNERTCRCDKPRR
ASSAY_OVERVIEW: competitive phage-ELISA, wt = pY0192
Would you kindly list IC50 (mut) / IC50 (wt) for each of these binders?
Answer with a number only.

Recorded IC50 (mut) / IC50 (wt) (binder pY0192 VH F110A (Fab, V domains shown) VH: EVQLVESGGGLVQPGGSLRLSCAASGYTFTNYGINWVRQAPGKGLEWVGWINTYTGEPTYAADFKRRFTFSLDTSKSTAYLQMNSLRAEDTAVYYCAKYPHYYGSSHWYADVWGQGTL VL: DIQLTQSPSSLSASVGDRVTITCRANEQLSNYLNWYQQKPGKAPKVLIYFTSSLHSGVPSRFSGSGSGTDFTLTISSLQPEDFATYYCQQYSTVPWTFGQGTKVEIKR ): 25

Recorded IC50 (mut) / IC50 (wt) (binder pY0192 VH H101A (Fab, V domains shown) VH: EVQLVESGGGLVQPGGSLRLSCAASGYTFTNYGINWVRQAPGKGLEWVGWINTYTGEPTYAADFKRRFTFSLDTSKSTAYLQMNSLRAEDTAVYYCAKYPAYYGSSHWYFDVWGQGTL VL: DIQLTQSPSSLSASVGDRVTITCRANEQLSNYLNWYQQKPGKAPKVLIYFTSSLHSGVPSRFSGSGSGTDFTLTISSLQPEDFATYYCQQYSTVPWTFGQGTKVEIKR ): 4

Recorded IC50 (mut) / IC50 (wt) (binder pY0192 VH N35A (Fab, V domains shown) VH: EVQLVESGGGLVQPGGSLRLSCAASGYTFTNYGIAWVRQAPGKGLEWVGWINTYTGEPTYAADFKRRFTFSLDTSKSTAYLQMNSLRAEDTAVYYCAKYPHYYGSSHWYFDVWGQGTL VL: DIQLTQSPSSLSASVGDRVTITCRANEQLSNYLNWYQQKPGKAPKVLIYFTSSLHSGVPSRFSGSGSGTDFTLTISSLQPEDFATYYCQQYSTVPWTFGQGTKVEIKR ): 66

Recorded IC50 (mut) / IC50 (wt) (binder pY0192 VH T55A (Fab, V domains shown) VH: EVQLVESGGGLVQPGGSLRLSCAASGYTFTNYGINWVRQAPGKGLEWVGWINTYAGEPTYAADFKRRFTFSLDTSKSTAYLQMNSLRAEDTAVYYCAKYPHYYGSSHWYFDVWGQGTL VL: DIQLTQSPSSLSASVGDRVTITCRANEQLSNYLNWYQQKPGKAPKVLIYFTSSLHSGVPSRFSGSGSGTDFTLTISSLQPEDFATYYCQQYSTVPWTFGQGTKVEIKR ): 4

Recorded IC50 (mut) / IC50 (wt) (binder pY0192 VH Y27A (Fab, V domains shown) VH: EVQLVESGGGLVQPGGSLRLSCAASGATFTNYGINWVRQAPGKGLEWVGWINTYTGEPTYAADFKRRFTFSLDTSKSTAYLQMNSLRAEDTAVYYCAKYPHYYGSSHWYFDVWGQGTL VL: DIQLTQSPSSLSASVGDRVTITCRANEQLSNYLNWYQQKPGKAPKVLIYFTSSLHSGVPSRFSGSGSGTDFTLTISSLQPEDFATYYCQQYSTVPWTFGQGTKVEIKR ): 34

Recorded IC50 (mut) / IC50 (wt) (binder pY0192 VH T59A (Fab, V domains shown) VH: EVQLVESGGGLVQPGGSLRLSCAASGYTFTNYGINWVRQAPGKGLEWVGWINTYTGEPAYAADFKRRFTFSLDTSKSTAYLQMNSLRAEDTAVYYCAKYPHYYGSSHWYFDVWGQGTL VL: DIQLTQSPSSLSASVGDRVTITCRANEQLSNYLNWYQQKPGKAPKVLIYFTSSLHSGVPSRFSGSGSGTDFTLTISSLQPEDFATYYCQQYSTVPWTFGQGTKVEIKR ): 3
